Tested on: NCI-H441 cells
ASSAY EXPLANATION: 3D cell proliferation assay (CellTiter Glo-3D), NCI-H441
Type: cell-based, human
EXPERIMENTAL PARAMETERS: Homo sapiens, 120 h, NCI-H441 cells (KRAS G12V), 2% FBS, 5 days, read-out: H441 AP IC50
pIC50: −log10 of the molar value.
MEASURED PARAMETER: pIC50

Known results for compounds:
>>> numeric_readout("CCn1c(-c2cc(C#CCN3CCC(C(=O)NCCO)CC3)cnc2[C@H](C)OC)c2c3cc(ccc31)-c1csc(n1)C[C@H](NC(=O)[C@H]1[C@H](C)[C@@H]1C)C(=O)N1CCC[C@H](N1)C(=O)OCC(C)(C)C2 (atropisomer, axis not shown; (Ra))")
9.68
>>> numeric_readout("CCn1c(-c2cc(C#CCN3CCC(C#N)(CN)CC3)c[n+]([O-])c2[C@H](C)OC)c2c3cc(ccc31)-c1csc(n1)C[C@H](NC(=O)[C@H]1[C@H](C)[C@@H]1C)C(=O)N1CCC[C@H](N1)C(=O)OCC(C)(C)C2 (atropisomer, axis not shown; (Ra))")
8.87
>>> numeric_readout("COCCn1c(-c2cc(C#CCN3CCN(C(=O)CO)CC3)cnc2[C@H](C)OC)c2c3cc(ccc31)-c1csc(n1)C[C@H](NC(=O)[C@H]1[C@H](C)[C@@H]1C)C(=O)N1CCC[C@H](N1)C(=O)OCC(C)(C)C2 (atropisomer, axis not shown; (Ra))")
9.49

(I) CCn1c(-c2cc(C#CCN3CCS(=N)(=O)CC3)cnc2[C@H](C)OC)c2c3cc(ccc31)-c1csc(n1)C[C@H](NC(=O)[C@H]1[C@@H]3COC[C@@H]31)C(=O)N1CCC[C@H](N1)C(=O)OCC(C)(C)C2 (atropisomer, axis not shown; (Ra))
(II) CCn1c(-c2cc(C#CCN3CCS(=O)(=O)CC3)cnc2[C@H](C)OC)c2c3cc(ccc31)-c1csc(n1)[C@@H](N)[C@H](NC(=O)[C@H]1[C@H](C)[C@@H]1C)C(=O)N1CCC[C@H](N1)C(=O)OCC(C)(C)C2 (atropisomer, axis not shown; (Ra))
(III) COCCn1c(-c2cc(C#CCN3CCN(C(=O)CO)CC3)cnc2C(C)OC)c2c3cc(ccc31)-c1csc(n1)CC(NC(=O)C1C3COCC31)C(=O)N1CCCC(N1)C(=O)OCC(C)(C)C2 (atropisomer, axis not shown; (Ra))
(IV) CCn1c(-c2cc(C#CCN3CCS(=O)(=O)CC3)cnc2C(C)O)c2c3cc(ccc31)-c1csc(n1)CC(NC(=O)C1C(C)C1C)C(=O)N1CCCC(N1)C(=O)OCC(C)(C)C2 (atropisomer, axis not shown; (Ra))
# input Kindly order the items shown according to pIC50, from the highest value down. Rank them, then answer with their labels in that order.
# output IV, II, I, III
(IV: 9.80, II: 9.60, I: 9.36, III: 8.97)

---

System: NCI-H441 cells
ASSAY EXPLANATION: 3D cell proliferation assay (CellTiter Glo-3D), NCI-H441
Assay type: cell-based, human
EXPERIMENTAL PARAMETERS: Homo sapiens, 120 h, NCI-H441 cells (KRAS G12V), 2% FBS, 5 days, read-out: H441 AP IC50
pIC50: −log10 of the molar value.
MEASURED PARAMETER: pIC50

Known results for molecules:
>>> numeric_readout("CCn1c(-c2cc(C#CCN3CCCOCC3)cnc2[C@H](C)OC)c2c3cc(ccc31)-c1csc(n1)C[C@H](NC1=NOC(CC)(CC)C1)C(=O)N1CCC[C@H](N1)C(=O)OCC(C)(C)C2 (atropisomer, axis not shown; (Ra))")
8.49
>>> numeric_readout("CCn1c(-c2cc(C#CCN3CCC(C#N)(CO)CC3)c[n+]([O-])c2[C@H](C)OC)c2c3cc(ccc31)-c1csc(n1)C[C@H](NC(=O)[C@H]1[C@H](C)[C@@H]1C)C(=O)N1CCC[C@H](N1)C(=O)OCC(C)(C)C2 (atropisomer, axis not shown; (Ra))")
9.28

(A) CCn1c(-c2cc(C#CC(CO)N3CCS(=O)(=O)CC3)cnc2C(C)OC)c2c3cc(ccc31)-c1csc(n1)CC(NC(=O)C1C3COCC31)C(=O)N1CCCC(N1)C(=O)OCC(C)(C)C2 (atropisomer, axis not shown; (Ra))
(B) CCn1c(-c2cc(C#CCN3CCC(C#N)(CO)CC3)cnc2[C@H](C)OC)c2c3cc(ccc31)-c1csc(n1)C[C@H](NC(=O)[C@H]1[C@H](C)[C@@H]1C)C(=O)N1CCC[C@H](N1)C(=O)OCC(C)(C)C2 (atropisomer, axis not shown; (Ra))
# input Hi there, can you help? I need to know whether A or B has lower measured pIC50. Which one? Tell me its label.
# output A
(A: 9.40, B: 10.22)

---

Test system: NCI-H441 cells
ASSAY EXPLANATION: 3D cell proliferation assay (CellTiter Glo-3D), NCI-H441
Assay type: cell-based, human
EXPERIMENTAL PARAMETERS: Homo sapiens, 120 h, NCI-H441 cells (KRAS G12V), 2% FBS, 5 days, read-out: H441 AP IC50
MEASURED PARAMETER: IC50 (nM)

>>> numeric_readout("CCn1c(-c2cc(C#CCN3CCS(=O)(=O)CC3)cnc2C(C)OC)c2c3cc(ccc31)-c1csc(n1)CC(NC(=O)C1C(C)C1C(=O)NCCO)C(=O)N1CCCC(N1)C(=O)OCC(C)(C)C2 (atropisomer, axis not shown; (Ra)) [Compound Z13-1]")
3.36
>>> numeric_readout("CCn1c(-c2cc(C#CCN3CCCOCC3)cnc2[C@H](C)OC)c2c3cc(ccc31)-c1csc(n1)C[C@H](NC1=NOC(C)(C3CC3)C1)C(=O)N1CCC[C@H](N1)C(=O)OCC(C)(C)C2 (atropisomer, axis not shown; (Ra)) [Compound Z281]")
3

---

TEST TARGET: KRAS WT-cRAF (Homo sapiens, UniProt P01116+P62937)
Sequence (P01116 1-188 isoform P01116-2): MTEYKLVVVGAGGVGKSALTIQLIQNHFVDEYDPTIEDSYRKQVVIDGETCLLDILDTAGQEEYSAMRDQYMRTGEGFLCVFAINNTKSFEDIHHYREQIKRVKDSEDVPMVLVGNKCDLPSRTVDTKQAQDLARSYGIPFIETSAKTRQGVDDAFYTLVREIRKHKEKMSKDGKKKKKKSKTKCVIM
Sequence (P62937 whole entry): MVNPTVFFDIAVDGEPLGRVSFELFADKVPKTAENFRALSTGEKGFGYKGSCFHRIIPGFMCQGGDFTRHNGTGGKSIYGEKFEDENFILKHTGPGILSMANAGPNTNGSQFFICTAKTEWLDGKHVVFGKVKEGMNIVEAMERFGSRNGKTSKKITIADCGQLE
ASSAY EXPLANATION: Assay for binding of KRAS to cRAF (HTRF, with Cyclophilin A), KRAS WT
EXPERIMENTAL PARAMETERS: KRAS WT-cRAF binding assay(nM), GPPNP-KRAS WT, IC50 values
MEASURED PARAMETER: IC50 (nM)

(A) CCn1c(-c2cc(C#CCN3CCS(=O)(=O)CC3)cnc2C(C)NC)c2c3cc(ccc31)-c1csc(n1)CC(NC(=O)C1C(C)C1C)C(=O)N1CCCC(N1)C(=O)OCC(C)(C)C2 (atropisomer, axis not shown; (Ra))
(B) CCn1c(-c2cc(C#CCN3CCS(=O)(=O)CC3)cnc2C(C)OC)c2c3cc(ccc31)-c1csc(n1)CC(NC(=O)C1C3CNCC31)C(=O)N1CCCC(N1)C(=O)OCC(C)(C)C2 (atropisomer, axis not shown; (Ra))
# input Hi there, can you help? I need to know whether A or B has lower measured IC50. Which one? Tell me its label.
# output B

---

System: NCI-H441 cells
ASSAY EXPLANATION: 3D cell proliferation assay (CellTiter Glo-3D), NCI-H441
Type: cell-based, human
EXPERIMENTAL PARAMETERS: Homo sapiens, 120 h, NCI-H441 cells (KRAS G12V), 2% FBS, 5 days, read-out: H441 AP IC50
pIC50: −log10 of the molar value.
MEASURED PARAMETER: pIC50

(I) COCCn1c(-c2cc(C#CCN3CCC(C#N)(CO)CC3)c[n+]([O-])c2C(C)OC)c2c3cc(ccc31)-c1csc(n1)CC(NC(=O)C1C(C)C1C)C(=O)N1CCCC(N1)C(=O)OCC(C)(C)C2 (atropisomer, axis not shown; (Ra))
(II) CCn1c(-c2cc(C#CCN3CCC(N)(C#N)CC3)cnc2[C@H](C)OC)c2c3cc(ccc31)-c1csc(n1)C[C@H](NC(=O)[C@H]1[C@@H]3COC[C@@H]31)C(=O)N1CCC[C@H](N1)C(=O)OCC(C)(C)C2 (atropisomer, axis not shown; (Ra))
# input Hi there, can you help? I need to know whether I or II has lower measured pIC50. Which one? Tell me its label.
# output I
(I: 9.19, II: 9.55)

---

ASSAY EXPLANATION: Human liver microsomal stability experiment
Format: in vitro ADME
EXPERIMENTAL PARAMETERS: human liver microsomes, NADPH, 37 °C
MEASURED PARAMETER: half-life at 1 µM (min)

>>> numeric_readout("CCn1c(-c2cc(C#CCN3CCC(C#N)CC3)cnc2C(C)OC)c2c3cc(ccc31)-c1csc(n1)CC(NC(=O)C1C3COCC31)C(=O)N1CCCC(N1)C(=O)OCC(C)(C)C2 (atropisomer, axis not shown; (Ra)) [Compound Z56]")
23.3
>>> numeric_readout("CCn1c(-c2cc(C#CCN3CCC(O)CC3)cnc2C(C)OC)c2c3cc(ccc31)-c1csc(n1)CC(NC(=O)C1C(C)C1C)C(=O)N1CCCC(N1)C(=O)OCC(C)(C)C2 (atropisomer, axis not shown; (Ra)) [Compound Z11]")
30.3
